Value source: ChEMBL document CHEMBL1268842

Experiment: Oral bioavailability in Sprague-Dawley rat at 6 mg/kg by HPLC/MS/MS analysis
Type: ADME, organism-based
Settings: in vivo
endpoint: bioavailability (%)

compound | quantitative-result
CC(C)N(Cc1ccccc1)C(=O)CN1C(=O)[C@@H](Cc2c[nH]c3ccccc23)c2nnc(-c3ccccc3)n2-c2ccccc21 [CE-326597] | 1

###

Experiment: Half life in Sprague-Dawley rat at 3 mg/kg, iv by HPLC/MS/MS analysis
Format: ADME, organism-based
Parameters: dose 3 mg/kg, route intravenous
Conditions: in vivo

chemical-structure | half-life / h
CC(C)N(Cc1ccccc1)C(=O)CN1C(=O)[C@@H](Cc2c[nH]c3ccccc23)c2nnc(-c3ccccc3)n2-c2ccccc21 | 1.37

###

Molecular target: UniProtKB P32238
Sequence (P32238 whole entry): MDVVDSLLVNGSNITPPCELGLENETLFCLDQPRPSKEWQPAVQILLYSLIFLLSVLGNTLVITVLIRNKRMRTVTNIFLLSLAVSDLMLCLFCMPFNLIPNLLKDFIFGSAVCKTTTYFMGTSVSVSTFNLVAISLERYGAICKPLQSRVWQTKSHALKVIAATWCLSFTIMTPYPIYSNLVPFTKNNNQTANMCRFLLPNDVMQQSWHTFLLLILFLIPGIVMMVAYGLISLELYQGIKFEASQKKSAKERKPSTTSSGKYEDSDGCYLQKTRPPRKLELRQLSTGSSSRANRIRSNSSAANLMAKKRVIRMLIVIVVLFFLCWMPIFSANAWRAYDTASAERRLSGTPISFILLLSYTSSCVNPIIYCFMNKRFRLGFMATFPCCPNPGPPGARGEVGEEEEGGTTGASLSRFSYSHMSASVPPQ
Assay: Agonist activity at human CCK1 receptor expressed in CHO cells assessed as induction of calcium release by FLIPR assay
# Lookup of reported EC50 keyed by entry
endpoint: EC50

molecule | result
CC(C)N(C(=O)CN1C(=O)[C@H](NC(=O)Nc2cccc(C(=O)O)c2)C(=O)N(c2ccccc2)c2ccccc21)c1ccccc1 | 283 nM
CC(C)N(Cc1ccccc1)C(=O)CN1C(=O)C(Cc2n[nH]c3ccccc23)c2nnc(-c3ccccc3)n2-c2ccccc21 (configuration not stated) | 522 nM

###

Assay: Blood clearance predicted from rat liver microsomes
Details: whole blood

chemical-structure | clearance
CC(C)N(Cc1ccccc1)C(=O)CN1C(=O)[C@@H](Cc2c[nH]c3ccccc23)c2nnc(-c3ccccc3)n2-c2ccccc21 | 47 mL/min/kg

###

Assay: AUC (0 to tlast) in Sprague-Dawley rat at 6 mg/kg, po by HPLC/MS/MS analysis
Assay type: ADME, organism-based
Design: dose 6 mg/kg, route oral
Conditions: plasma
endpoint: AUC(0-t) (ng·h/mL)

compound | endpoint | units-symbol | quantitative-result
CC(C)N(Cc1ccccc1)C(=O)CN1C(=O)[C@@H](Cc2c[nH]c3ccccc23)c2nnc(-c3ccccc3)n2-c2ccccc21 [CE-326597] | AUC(0-t) | ng·h/mL | 42.5

###

Assay: Lipophilicity, log D of the compound at pH 7.4
Assay type: physicochemical
Conditions: buffer, read-out: logD
# Lookup of reported logD keyed by entry

molecule | logD
CC(C)N(Cc1ccccc1)C(=O)CN1C(=O)C(Cc2n[nH]c3ccccc23)c2nnc(-c3ccccc3)n2-c2ccccc21 (configuration not stated) | 3.16
CC(C)N(C(=O)CN1C(=O)[C@H](NC(=O)Nc2cccc(C(=O)O)c2)C(=O)N(c2ccccc2)c2ccccc21)c1ccccc1 | 1.09
